Attribution: the supplement of paper PMC7877785

test_protocol: self-splicing fitness, log relative to wild type (ln ratio); higher = more splicing; Tetrahymena group I intron in knt gene, E. coli kanamycin selection, DiMSum; sequences stand for … in CUCUCU…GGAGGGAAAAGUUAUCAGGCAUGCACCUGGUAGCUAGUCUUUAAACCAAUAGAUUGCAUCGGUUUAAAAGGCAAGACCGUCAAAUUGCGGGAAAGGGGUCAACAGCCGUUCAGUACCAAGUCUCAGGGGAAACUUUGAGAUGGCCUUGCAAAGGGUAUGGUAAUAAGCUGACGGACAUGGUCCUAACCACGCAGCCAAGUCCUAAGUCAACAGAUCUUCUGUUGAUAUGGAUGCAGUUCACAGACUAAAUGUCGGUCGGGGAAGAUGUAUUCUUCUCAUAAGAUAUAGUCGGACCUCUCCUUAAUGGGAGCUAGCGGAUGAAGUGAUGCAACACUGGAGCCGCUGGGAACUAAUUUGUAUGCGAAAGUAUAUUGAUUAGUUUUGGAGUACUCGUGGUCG;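 further: selection with 25 µg/mL kanamycin versus none on LB agar overnight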
condition_info: 37 °C
Rule: self-splicing fitness (ln) of -2 or more gives Fulfilled; anything lower gives Not fulfilled.

biosequence | answer_label
AUAUAGCAAUAUUACGAGGU | Fulfilled
CGGAAGCAAUAUUACGCCAA | Not fulfilled
GAGAAGCAAUAUUACGCAAU | Fulfilled
GAUGAGCAAUAUUACGAGGA | Not fulfilled
ACGAAGCAAUAUUACGGGUA | Not fulfilled
CUAAAGCAAUAUUACGGAGG | Fulfilled
UACAAGCAAUAUUACGUGUC | Fulfilled
CCCGAGCAAUAUUACGUGGU | Not fulfilled
CCCUAGCAAUAUUACGUAUU | Not fulfilled
CUAUAGCAAUAUUACGGCGU | Not fulfilled
AGUCAGCAAUAUUACGAUGG | Fulfilled
AGCUAGCAAUAUUACGGAUU | Fulfilled
CGAUAGCAAUAUUACGUCUC | Not fulfilled
GUCAAGCAAUAUUACGUCCC | Fulfilled
UCAUAGCAAUAUUACGCCGU | Fulfilled
CACAAGCAAUAUUACGCAGU | Not fulfilled
AACCAGCAAUAUUACGCCGU | Fulfilled
GGUAAGCAAUAUUACGACAA | Fulfilled
UGUCAGCAAUAUUACGGCGA | Fulfilled
UGAGAGCAAUAUUACGUUGA | Not fulfilled
UCCUAGCAAUAUUACGACAG | Not fulfilled
ACAUAGCAAUAUUACGAACA | Fulfilled
CCGUAGCAAUAUUACGACUG | Fulfilled
CAUGAGCAAUAUUACGUCCA | Not fulfilled
UGAUAGCAAUAUUACGGAUU | Fulfilled
CGUCAGCAAUAUUACGCUUU | Fulfilled
UUCCAGCAAUAUUACGCGUG | Fulfilled
GAAUAGCAAUAUUACGGGUC | Not fulfilled
CGCAAGCAAUAUUACGGCAA | Fulfilled
GACGAGCAAUAUUACGAAAA | Not fulfilled
CCGUAGCAAUAUUACGCAAA | Not fulfilled
CAGAAGCAAUAUUACGCCCU | Fulfilled
GUUAAGCAAUAUUACGCCAU | Fulfilled
CGGAAGCAAUAUUACGCGCC | Fulfilled
UAUAAGCAAUAUUACGACAU | Fulfilled
GUUAAGCAAUAUUACGGCCC | Fulfilled
ACACAGCAAUAUUACGCUAC | Not fulfilled
GCAAAGCAAUAUUACGACUC | Fulfilled
GUAAAGCAAUAUUACGUCGC | Fulfilled
GAUCAGCAAUAUUACGAAUU | Fulfilled
UGUGAGCAAUAUUACGCUAU | Fulfilled
UCGCAGCAAUAUUACGACCU | Fulfilled
CUGGAGCAAUAUUACGAACA | Fulfilled
UCCGAGCAAUAUUACGGGGC | Not fulfilled
CUUCAGCAAUAUUACGAUUA | Fulfilled
UCACAGCAAUAUUACGCCCU | Fulfilled
AUGCAGCAAUAUUACGUCCA | Fulfilled
UCCCAGCAAUAUUACGGAUA | Fulfilled
GCCCAGCAAUAUUACGCGGA | Fulfilled
AUCUAGCAAUAUUACGUGCA | Fulfilled
ACACAGCAAUAUUACGCAAG | Fulfilled

----------
test_protocol: self-splicing fitness, log relative to wild type (ln ratio); higher = more splicing; Tetrahymena group I intron in knt gene, E. coli kanamycin selection, DiMSum; sequences stand for … in CUCUCU…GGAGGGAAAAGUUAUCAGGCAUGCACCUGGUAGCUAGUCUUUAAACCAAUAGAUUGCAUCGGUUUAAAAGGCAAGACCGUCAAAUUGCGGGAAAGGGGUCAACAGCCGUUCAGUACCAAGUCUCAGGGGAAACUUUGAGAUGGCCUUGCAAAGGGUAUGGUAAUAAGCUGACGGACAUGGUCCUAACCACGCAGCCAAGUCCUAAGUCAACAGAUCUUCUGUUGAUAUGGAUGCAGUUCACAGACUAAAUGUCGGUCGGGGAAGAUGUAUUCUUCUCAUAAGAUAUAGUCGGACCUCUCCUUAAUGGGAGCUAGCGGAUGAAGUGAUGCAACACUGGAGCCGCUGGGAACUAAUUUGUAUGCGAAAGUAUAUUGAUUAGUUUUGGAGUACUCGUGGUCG
condition_info: 37 °C
parameter_measured: self-splicing fitness (ln)

biosequence | endpoint_value
AUAGAGCAAUAUUACGUUGC | -2.05
AGCAAGCAAUAUUACGUAGC | -2.45
UUACAGCAAUAUUACGCGAU | -1.75
GGCCAGCAAUAUUACGGCUG | -0.562
UGAAAGCAAUAUUACGGUAA | -0.765
GACGAGCAAUAUUACGGUCA | -0.552
CGGGAGCAAUAUUACGGUCC | -2.32
AACUAGCAAUAUUACGCGUC | -1.65
GCCAAGCAAUAUUACGCGGA | -0.277
CUAGAGCAAUAUUACGAUAG | 0.0398
UAGAAGCAAUAUUACGGCUU | -1.67
AACUAGCAAUAUUACGCAAG | -1.77
GGCAAGCAAUAUUACGGUAC | -0.752
GGCAAGCAAUAUUACGUGUU | -1.83
AUCUAGCAAUAUUACGAAGA | -1.67
AGACAGCAAUAUUACGGGGA | -1.82
UCUGAGCAAUAUUACGUAAC | -1.55
CCAGAGCAAUAUUACGCUAU | -2.26
CCCAAGCAAUAUUACGCUGU | -2.95
CCAGAGCAAUAUUACGGACG | -0.584
UUGGAGCAAUAUUACGUGAC | -0.119
CGGGAGCAAUAUUACGUGUA | -1.47
UGGUAGCAAUAUUACGUGCC | -2.45
GUGUAGCAAUAUUACGAUCU | 0.329
CAAAAGCAAUAUUACGCUAG | -2.26
GUGAAGCAAUAUUACGUCGG | 0.15
AGUAAGCAAUAUUACGUUUU | -2.19
AUUUAGCAAUAUUACGCCUC | -0.949
AGGUAGCAAUAUUACGGUUU | -0.252
GCAGAGCAAUAUUACGCAAU | -1.61
CAGGAGCAAUAUUACGGAGC | -3.3
UAGUAGCAAUAUUACGUCCG | -0.323
UCUAAGCAAUAUUACGCGCG | -1.74
UUCCAGCAAUAUUACGUAGU | -1.57
UAGCAGCAAUAUUACGACAU | -0.682
UAGCAGCAAUAUUACGAGGA | -2.06
AUACAGCAAUAUUACGACCC | -0.179
UCUAAGCAAUAUUACGCGAG | -1.6
UUUGAGCAAUAUUACGUACC | -2.3
CCUUAGCAAUAUUACGUCCG | -0.989
GCAAAGCAAUAUUACGUUAU | -1.54
UACCAGCAAUAUUACGACAA | -0.494
CAAGAGCAAUAUUACGACUU | -1.46
CCCGAGCAAUAUUACGGGAA | -2.39
AUGAAGCAAUAUUACGAUCG | 0.821
UUACAGCAAUAUUACGGGAU | -2.69

----------
test_protocol: self-splicing fitness, log relative to wild type (ln ratio); higher = more splicing; Tetrahymena group I intron in knt gene, E. coli kanamycin selection, DiMSum; sequences stand for … in CUCUCU…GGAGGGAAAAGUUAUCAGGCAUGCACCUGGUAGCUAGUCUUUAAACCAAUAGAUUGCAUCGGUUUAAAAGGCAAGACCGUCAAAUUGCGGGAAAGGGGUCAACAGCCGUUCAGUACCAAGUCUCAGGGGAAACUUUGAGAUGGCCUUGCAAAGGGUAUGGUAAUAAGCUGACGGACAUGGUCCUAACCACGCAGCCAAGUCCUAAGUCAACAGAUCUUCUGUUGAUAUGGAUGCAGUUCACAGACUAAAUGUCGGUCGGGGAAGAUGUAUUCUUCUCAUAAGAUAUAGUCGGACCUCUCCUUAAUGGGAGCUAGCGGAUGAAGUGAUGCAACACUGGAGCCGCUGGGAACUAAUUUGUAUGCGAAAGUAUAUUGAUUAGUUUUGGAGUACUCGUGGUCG
condition_info: 30 °C

biosequence | self-splicing fitness (ln)
UGCCAGCAAUAUUACGGAUA | -1.27
UAGAAGCAAUAUUACGGAAU | -2.11
AUGCAGCAAUAUUACGUGAC | -3.3
CUAUAGCAAUAUUACGUGGU | -3.34
GGUCAGCAAUAUUACGCCAG | -3.3
UCACAGCAAUAUUACGUUGA | -2.56
ACUUAGCAAUAUUACGGCUU | -0.359
AUGAAGCAAUAUUACGCUAG | -0.164
AAGCAGCAAUAUUACGUCCA | -0.662
CUCUAGCAAUAUUACGUCGG | -3.22
CAGCAGCAAUAUUACGCACU | -0.834
CCUUAGCAAUAUUACGGGCG | -1.64
CGUAAGCAAUAUUACGUUUC | -3.97
CACAAGCAAUAUUACGCAUC | -3.19
CUUUAGCAAUAUUACGGGUU | -3.22
CUGUAGCAAUAUUACGCGGU | -3.17
UAUAAGCAAUAUUACGUCGA | -1.56
CGUUAGCAAUAUUACGACCA | -0.453
UCAGAGCAAUAUUACGAUUU | -3.82
CUACAGCAAUAUUACGAUAA | -3.02
AUUUAGCAAUAUUACGCUAU | -3.64
AUUUAGCAAUAUUACGAAUU | -3.21
GAGUAGCAAUAUUACGGUUC | -1.02
GUGAAGCAAUAUUACGAUGU | -0.316
GGACAGCAAUAUUACGGACA | -0.509
UAGCAGCAAUAUUACGGUGC | -2.2
UACAAGCAAUAUUACGAGAC | -3.27
CGCAAGCAAUAUUACGCUUC | -3.18
AAACAGCAAUAUUACGGCGA | -0.923
UGGGAGCAAUAUUACGUAUG | -3.01
UGCCAGCAAUAUUACGAGUA | -1.49
UGAGAGCAAUAUUACGAUAC | -3.92
CCGUAGCAAUAUUACGCGGU | -3.13
UGCAAGCAAUAUUACGAUCA | 0.00924
CACUAGCAAUAUUACGUAUA | -3.17
GCCCAGCAAUAUUACGCCCC | -1.48
GGGCAGCAAUAUUACGCUUU | -0.861
UCAGAGCAAUAUUACGGUAU | -2.79
GCUUAGCAAUAUUACGAGUG | -0.38
CUUCAGCAAUAUUACGACGG | -2.16
UCAAAGCAAUAUUACGCAUG | -1.44
ACGGAGCAAUAUUACGGACU | -2.21
UGAUAGCAAUAUUACGCCUU | -3.11
UCAUAGCAAUAUUACGAAGG | -2.69
CCGUAGCAAUAUUACGGCAA | -3.49
UCAGAGCAAUAUUACGGGAC | -3.74
ACCGAGCAAUAUUACGCUGG | -4.24
GAGCAGCAAUAUUACGCCGC | -1.63
UACCAGCAAUAUUACGUGAG | -2.27
